Would you mind telling me the reported protein stability index of each entry?
System: Saccharomyces cerevisiae
Assay: protein stability index of tFT-peptide fusion (C-terminal peptide) (PSI (0-1 scale)); higher = more stable (slower turnover)
Conditions: genetic background: das1 deletion; temperature: 30 C

Illustrative cases are given below, each with its answer.
FVEFCFWCFWVV    0.407
IWVFSVTGWCGC    0.401

Determine from records and report protein stability index for "FRHKLSLGLVIV"
0.396

* * *

System: Saccharomyces cerevisiae
Test: protein stability index of tFT-peptide fusion (C-terminal peptide) (PSI (0-1 scale)); higher = more stable (slower turnover)
Settings: genetic background: das1 deletion; temperature: 37 C
Please respond with reported protein stability index for every item in the list.
Numbers only.

Batch request: protein stability index for each of the following sequences.
1. SPTRTCTAIRTP
2. LSRELRFVGFYH
3. SPRSIALLHLFS
4. GRFGVGVVFRLA

1: 0.708; 2: 0.717; 3: 0.705; 4: 0.719

* * *

Tested on: Saccharomyces cerevisiae
Experiment: protein stability index of tFT-peptide fusion (C-terminal peptide) (PSI (0-1 scale)); higher = more stable (slower turnover)
Conditions: genetic background: wild type; temperature: 30 C
Readout Label: protein stability index

GRLIRYGSLPSP    0.729
CILPVLRGMSPA    0.616

Value sought for every listed sequence: protein stability index.
1. PPPPGCLPRPAS
2. GGAGHGAGAVWG
3. DRNKRDERTSEE
4. VLFSVWFFLVLV
5. NGVLGYAVLEGE
6. PTGLTNPPPCPQ

1. 0.699
2. 0.71
3. 0.744
4. 0.117
5. 0.705
6. 0.716

* * *

Test system: Saccharomyces cerevisiae
Experiment: protein stability index of tFT-peptide fusion (C-terminal peptide) (PSI (0-1 scale)); higher = more stable (slower turnover)
Conditions: genetic background: wild type; temperature: 30 C
Threshold check on protein stability index: at or above 0.6 gives Fulfilled, strictly below gives Not fulfilled.

VHPRFSFGPHFV    Fulfilled
EVYAGGESDVMS    Fulfilled

Could you tell me if the measured protein stability index of "CGTVVISGIVWR" reaches 0.6 or more?
Fulfilled

Exam item: decide whether the reported protein stability index for "IALLQRTSSTPD" is at least 0.6.
Fulfilled

Could you tell me if the measured protein stability index of "NKDQKTKKNKRK" reaches 0.6 or more?
Fulfilled

Could you please find out whether "STAKTARRKREK" has protein stability index that meets 0.6 or exceeds it?
Fulfilled

hey, is protein stability index for this one >= 0.6? "AEARTRYVPRPR"
Fulfilled

Please indicate if the recorded protein stability index for "RVITRMLLMVIR" meets or exceeds 0.6.
Not fulfilled

Please tell me: is the sequence "ALRMVRHCPVNT" at or over 0.6 in terms of protein stability index?
Fulfilled

Could you verify whether the entry "PHRLLTQITTGT" shows protein stability index of no less than 0.6?
Fulfilled

# bool: protein stability index of "GGVVGWCAGKVV" >= 0.6
Fulfilled

Kindly determine if protein stability index recorded for "YVKHTVKVSGHK" is above or exactly 0.6.
Fulfilled

Could you tell me if the measured protein stability index of "KIKKRRKKDNKR" reaches 0.6 or more?
Fulfilled

Check this sequence for protein stability index at or above 0.6: "PPPPRSPVCLPL"
Fulfilled

Say whether "RLWLPLSLVLWV" shows protein stability index of 0.6 or more.
Not fulfilled

Item "FLLPLKCRSTTN" with protein stability index of 0.6 or above?
Fulfilled

* * *

Tested on: Saccharomyces cerevisiae
Test: protein stability index of tFT-peptide fusion (C-terminal peptide) (PSI (0-1 scale)); higher = more stable (slower turnover)
Conditions: genetic background: das1 deletion; temperature: 30 C
What protein stability index was measured for each of the following?
Give bare numbers.

Reference set, count: 5
TISRLPPRSWTN [YCL042W C-terminal 12 aa]    0.717
CTSLLKGERKKE [RRT8 C-terminal 12 aa]    0.666
YGLLKFHSVFES [YMR209C C-terminal 12 aa]    0.707
SFNFDHFDHFDL [YIL054W C-terminal 12 aa]    0.733
RNIDVSNLPSLA [STM1 C-terminal 12 aa]    0.691

Please state, for each entry, its recorded protein stability index.
1. PQENHDNKEEQS [HEK2 C-terminal 12 aa]
2. GFQTGSASKASA [RPL37A C-terminal 12 aa]
3. HENSKCFTHYLI [AFR1 C-terminal 12 aa]
4. DECFCLARHEND [TDP1 C-terminal 12 aa]
5. SLRSFFVKQKVL [ERP6 C-terminal 12 aa]
6. GDSDNVVKRLRK [URB1 C-terminal 12 aa]
7. TIIYPLFIFFSL [YMR105W-A C-terminal 12 aa]

0.676
0.719
0.684
0.711
0.641
0.686
0.312

* * *

For each entry below, report its protein stability index value.
Tested on: Saccharomyces cerevisiae
Assay: protein stability index of tFT-peptide fusion (C-terminal peptide) (PSI (0-1 scale)); higher = more stable (slower turnover)
Conditions: genetic background: das1 deletion; temperature: 30 C
Numbers only.

Worked cases, protein stability index given:
LLLLASLFFRLA    0.467
VVVWLFRIKSNV    0.358
LIIVFGFTSILR    0.36
TNHRVRHWILRV    0.609

Parameter requested: protein stability index. Apply to each item below.
1. GWLRHGWWRTVG
2. PSRRLRHFATSP
3. FPLGAQTWLCLS
4. LMIVSVRLLFFL
5. MDLVSEYKIKVN
6. FTRLDYKRIKIV
7. VVNFLVFRFFCI

1. 0.658
2. 0.736
3. 0.609
4. 0.232
5. 0.56
6. 0.62
7. 0.481

* * *

System: Saccharomyces cerevisiae
Assay: protein stability index of tFT-peptide fusion in wild type (PSI (0-1 scale)); higher = more stable (slower turnover)
Conditions: genetic background: wild type
Readout Label: protein stability index
Give bare numbers.

Answered examples (3):
PSLAASFHRVVG    0.687
PSWAASFWRVVG    0.154
RSLRVLLPNYFR    0.64

Give me protein stability index for each of these sequences, listed below.
1. VRGAVYGWRLVG
2. KKTKKGQKQKIN
3. AITLPKCPLLLR

1: 0.141; 2: 0.113; 3: 0.335

* * *

Tested on: Saccharomyces cerevisiae
Assay: protein stability index of tFT-peptide fusion (C-terminal peptide) (PSI (0-1 scale)); higher = more stable (slower turnover)
Conditions: genetic background: wild type; temperature: 30 C
Readout Label: protein stability index
Answers are plain numbers.

// known answers, use as guide
KNNSKKRKLKPR    0.718
LPVPLFPLFLTS    0.573

Each sequence below has a recorded value; state its protein stability index.
1. GRKNPPGTTDES
2. KKKKKKQQKKRK
3. VVFTTLRHPFRG
4. GGGGGGWGGGVG
5. YHFRLLVTCCPC
6. ATNCERLHNPHL
7. CGRSGALGPWGG

0.725
0.686
0.699
0.665
0.321
0.727
0.673

Fill in protein stability index for each of the 3 sequences listed.
1. REGGDPPDGGTG
2. RVPCCLSFVPVC
3. VGSCGAPRLPWP

1. 0.734
2. 0.452
3. 0.732

Okay, here is my list. What is protein stability index for each of these?
1. GRWRVEYWGFGG
2. CLLLFFIFLLFL
3. SRPRTTRKAASS
4. ATIRNSMPYHFN
5. WWEGSFRGGAVR

[0.722, 0.41, 0.674, 0.646, 0.592]

For each of the items listed, what is its protein stability index?
1. PPPPPPLSVPPL
2. YLFDQYDWYKSM

1: 0.695; 2: 0.368

Here are 4 sequences. What values of protein stability index were reported for them?
1. NNNKKKDDNIDM
2. PFSNFFFRLSFS
3. TRPHPLRRVFIF
4. ASTLFDCHVLGA

[0.618, 0.665, 0.293, 0.697]

// for each sequence below, give its protein stability index
1. EVRSDSFFKCEG
2. YRSPPPLRGLIP
3. LVHLVLYVAVFC

1. 0.661
2. 0.711
3. 0.283

Take each entry in turn and give its protein stability index.
1. FVPSSVFLFCLG
2. TVGSVAREGPFW
3. PVPPPLSPLPTP
4. PHAPHPPALTPP

1. 0.545
2. 0.696
3. 0.703
4. 0.623

* * *

Test system: Saccharomyces cerevisiae
Test: protein stability index of tFT-peptide fusion (C-terminal peptide) (PSI (0-1 scale)); higher = more stable (slower turnover)
Details: genetic background: wild type; temperature: 30 C
Readout Label: protein stability index
One number for each entry.

SPTRTCTAIRTP    0.712
RGRWGVYISSWV    0.626

Dear colleague, could you send me protein stability index for each of the items below? Thanks.
1. GALSDSLRVYTP
2. SGSRWYYSLGRG
3. PPPPTPHRSPLL

0.688
0.709
0.598

// each sequence listed below needs its protein stability index
1. AVGTAPVFLWFG
2. PALPPLPPPPPA
3. GSTLWGMAGGAR
4. SPLDEYIDSVPA

1: 0.679; 2: 0.71; 3: 0.699; 4: 0.726
